# System name: Beta-secretase 1 (Homo sapiens, UniProt P56817)
# Sequence (P56817 whole entry, the tested form may be a part): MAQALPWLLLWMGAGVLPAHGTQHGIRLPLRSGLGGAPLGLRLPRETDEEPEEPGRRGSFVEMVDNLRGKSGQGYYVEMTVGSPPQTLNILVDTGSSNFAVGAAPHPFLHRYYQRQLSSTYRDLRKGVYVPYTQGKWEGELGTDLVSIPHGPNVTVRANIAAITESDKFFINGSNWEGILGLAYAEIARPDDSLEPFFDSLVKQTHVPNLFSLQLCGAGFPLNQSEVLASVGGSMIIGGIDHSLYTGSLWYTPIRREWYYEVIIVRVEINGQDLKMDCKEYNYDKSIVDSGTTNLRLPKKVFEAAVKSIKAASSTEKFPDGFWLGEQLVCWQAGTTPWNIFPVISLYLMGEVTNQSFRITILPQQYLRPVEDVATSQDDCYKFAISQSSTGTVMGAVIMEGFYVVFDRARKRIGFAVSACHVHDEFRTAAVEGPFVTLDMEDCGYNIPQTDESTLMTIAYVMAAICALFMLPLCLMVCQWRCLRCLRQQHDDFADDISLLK
# Test method notes: Inhibition of ectodomain of BACE1 secreted from […] cells by fluorimetry
# Type: cell-based
Observation type: pIC50
pIC50 is defined as minus the log10 of a concentration measured in mol/L.

// worked examples, pIC50 included
INSERT INTO results (compound, system_name, result) VALUES
  ('CC(CP(=O)(O)C1CCCCCC[C@H](NC(=O)[C@@H](N)CCC(=O)O)C(=O)N[C@@H](CC(=O)O)C(=O)N1)C(=O)N[C@H](C(=O)N[C@@H](CCC(=O)O)C(=O)N[C@@H](Cc1ccccc1)C(=O)O)C(C)C (mixture of isomers; form 1)', 'Beta-secretase 1 (Homo sapiens, UniProt P56817)', 7.33),
  ('CC(CP(=O)(O)C1CCCCCC[C@H](NC(=O)[C@@H](N)CCC(=O)O)C(=O)N[C@@H](CC(=O)O)C(=O)N1)C(=O)N[C@H](C(=O)N[C@@H](CCC(=O)O)C(=O)N[C@@H](Cc1ccccc1)C(=O)O)C(C)C (mixture of isomers; form 3)', 'Beta-secretase 1 (Homo sapiens, UniProt P56817)', 6.28);

**Q:** Give Beta-secretase 1 (Homo sapiens, UniProt P56817) pIC50 for the following compound: CC(CP(=O)(O)C1CCCCCC[C@H](NC(=O)[C@@H](N)CCC(=O)O)C(=O)N[C@@H](CC(=O)O)C(=O)N1)C(=O)N[C@H](C(=O)N[C@@H](CCC(=O)O)C(=O)N[C@@H](Cc1ccccc1)C(=O)O)C(C)C (mixture of isomers; form 4)
**A:** 6.09

**Q:** Give Beta-secretase 1 (Homo sapiens, UniProt P56817) pIC50 for the following compound: CC(CP(=O)(O)C1CCCCCC[C@H](NC(=O)[C@@H](N)CCC(=O)O)C(=O)N[C@@H](CC(=O)O)C(=O)N1)C(=O)N[C@H](C(=O)N[C@@H](CCC(=O)O)C(=O)N[C@@H](Cc1ccccc1)C(=O)O)C(C)C (mixture of isomers; form 2)
**A:** 6.49
